Test system: IGROV1
Assay: NCI-60 SRB screen
Conditions: read-out: LC50; IGROV1, 48 h
Recorded Endpoint: CC50 (nM)
Express it in nM; write the number only.

Incoming: Looking for the measured CC50 of O=C(O)CCCCCN1C(=O)/C(=C/C=C/c2ccc([N+](=O)[O-])o2)SC1=S [14b] , can you help?
Outgoing: 2670

###

Test system: RPMI-8226
Conditions: RPMI-8226, 48 h
API: label(entry) gives Yes if the entry's TGI is strictly smaller than 4 µM; on equality or larger values it gives No.

As a guide, the following entries are already answered.
Compound | Label
O=C(O)C(c1ccccc1)N1C(=O)/C(=C/C=C/c2ccc([N+](=O)[O-])o2)SC1=S (stereo not shown) | No
O=C(O)CCCCCN1C(=O)/C(=C/C=C/c2ccc([N+](=O)[O-])o2)SC1=S [14b] | Yes
CCCC(C(=O)O)N1C(=O)/C(=C/C=C/c2ccc([N+](=O)[O-])o2)SC1=S (stereo not shown) | No

Incoming: Please state whether TGI is below 4 µM for O=C(O)CCCN1C(=O)/C(=C/C=C/c2ccc([N+](=O)[O-])o2)SC1=S [13b]
Outgoing: Yes

Incoming: Same lookup for O=C(O)CCN1C(=O)/C(=C/C=C/c2ccc([N+](=O)[O-])o2)SC1=S [12b] , please.
Outgoing: No

Incoming: Same lookup for CCCCC(C(=O)O)N1C(=O)/C(=C/C=C/c2ccc([N+](=O)[O-])o2)SC1=S (stereo not shown) , please.
Outgoing: No

Incoming: Same lookup for CC(C)C(C(=O)O)N1C(=O)/C(=C/C=C/c2ccc([N+](=O)[O-])o2)SC1=S (stereo not shown) , please.
Outgoing: Yes

###

Test system: T-47D
Settings: 48 h
Recorded Endpoint: TGI (µM)
Express it in µM; write the number only.

Some entries whose results are on file:
Compound | Tgt | Units Text | Readout Value
O=C(O)C(c1ccccc1)N1C(=O)/C(=C/C=C/c2ccc([N+](=O)[O-])o2)SC1=S (centres unmarked) | T-47D | µM | 39.4
CCCC(C(=O)O)N1C(=O)/C(=C/C=C/c2ccc([N+](=O)[O-])o2)SC1=S (centres unmarked) | T-47D | µM | 5.49
O=C(O)CCN1C(=O)/C(=C/C=C/c2ccc([N+](=O)[O-])o2)SC1=S [12b] | T-47D | µM | 3.55

Incoming: Looking for the measured TGI of CCCCC(C(=O)O)N1C(=O)/C(=C/C=C/c2ccc([N+](=O)[O-])o2)SC1=S (centres unmarked) , can you help?
Outgoing: 4.03

Incoming: Same lookup for CC(C)C(C(=O)O)N1C(=O)/C(=C/C=C/c2ccc([N+](=O)[O-])o2)SC1=S (centres unmarked) , please.
Outgoing: 3.24

###

Tested on: SNB-19
Assay: NCI-60 SRB screen
Details: Homo sapiens, SNB-19, 48 h, read-out: LC50, SNB-19, 48 h
Overview of reported CC50 across a group of molecules:
Express it in µM; write the number only.

Some entries whose results are on file:
Molecule | CC50, µM
O=C(O)C(c1ccccc1)N1C(=O)/C(=C/C=C/c2ccc([N+](=O)[O-])o2)SC1=S (stereo not shown) | 51.4
O=C(O)CCN1C(=O)/C(=C/C=C/c2ccc([N+](=O)[O-])o2)SC1=S [12b] | 22.9
O=C(O)CCCN1C(=O)/C(=C/C=C/c2ccc([N+](=O)[O-])o2)SC1=S [13b] | 6.05
CCCC(C(=O)O)N1C(=O)/C(=C/C=C/c2ccc([N+](=O)[O-])o2)SC1=S (stereo not shown) | 8.45
O=C(O)CCCCCN1C(=O)/C(=C/C=C/c2ccc([N+](=O)[O-])o2)SC1=S [14b] | 7.43

Incoming: Looking for the measured CC50 of CC(C)C(C(=O)O)N1C(=O)/C(=C/C=C/c2ccc([N+](=O)[O-])o2)SC1=S (stereo not shown) , can you help?
Outgoing: 5.53

Incoming: Same lookup for CCCCC(C(=O)O)N1C(=O)/C(=C/C=C/c2ccc([N+](=O)[O-])o2)SC1=S (stereo not shown) , please.
Outgoing: 13.5

###

Test system: SNB-75
Experiment: NCI-60 SRB screen
Conditions: Homo sapiens, SNB-75, 48 h, read-out: LC50, SNB-75, 48 h
API: label(entry) gives criterion met if the entry's CC50 is strictly smaller than 9 µM; on equality or larger values it gives criterion not met.

As a guide, the following entries are already answered.
Compound | Label
O=C(O)C(c1ccccc1)N1C(=O)/C(=C/C=C/c2ccc([N+](=O)[O-])o2)SC1=S (stereo not shown) [9b] | criterion not met
O=C(O)CCN1C(=O)/C(=C/C=C/c2ccc([N+](=O)[O-])o2)SC1=S [12b] | criterion not met
CC(C)C(C(=O)O)N1C(=O)/C(=C/C=C/c2ccc([N+](=O)[O-])o2)SC1=S (stereo not shown) [5b] | criterion met
O=C(O)CCCCCN1C(=O)/C(=C/C=C/c2ccc([N+](=O)[O-])o2)SC1=S [14b] | criterion met

Incoming: Please state whether CC50 is below 9 µM for CCCCC(C(=O)O)N1C(=O)/C(=C/C=C/c2ccc([N+](=O)[O-])o2)SC1=S (stereo not shown) [6b]
Outgoing: criterion met

Incoming: Same lookup for CCCC(C(=O)O)N1C(=O)/C(=C/C=C/c2ccc([N+](=O)[O-])o2)SC1=S (stereo not shown) [4b] , please.
Outgoing: criterion met

###

Test system: KM12
Assay: NCI-60 SRB screen
Settings: Homo sapiens, KM12, 48 h
Overview of reported GI50 across a group of compounds:
Express it in nM; write the number only.

Some entries whose results are on file:
Compound | Recorded Endpoint | Units Text | Readout Value
O=C(O)CCCCCN1C(=O)/C(=C/C=C/c2ccc([N+](=O)[O-])o2)SC1=S [14b] | GI50 | nM | 1420
CCCCC(C(=O)O)N1C(=O)/C(=C/C=C/c2ccc([N+](=O)[O-])o2)SC1=S (centres unmarked) [6b] | GI50 | nM | 1630
CC(C)C(C(=O)O)N1C(=O)/C(=C/C=C/c2ccc([N+](=O)[O-])o2)SC1=S (centres unmarked) [5b] | GI50 | nM | 1170
O=C(O)C(c1ccccc1)N1C(=O)/C(=C/C=C/c2ccc([N+](=O)[O-])o2)SC1=S (centres unmarked) [9b] | GI50 | nM | 6660

Next compound, GI50 to be filled in.
Incoming: Checklist item: GI50 tested on KM12, entry CCCC(C(=O)O)N1C(=O)/C(=C/C=C/c2ccc([N+](=O)[O-])o2)SC1=S (centres unmarked) [4b] , value?
Outgoing: 1380

###

System: ACHN
Conditions: human, 48 h
Recorded Endpoint: CC50

Compound | CC50
O=C(O)CCCN1C(=O)/C(=C/C=C/c2ccc([N+](=O)[O-])o2)SC1=S [13b] | 3.72 µM

Incoming: Checklist item: CC50 tested on ACHN, entry O=C(O)CCCCCN1C(=O)/C(=C/C=C/c2ccc([N+](=O)[O-])o2)SC1=S [14b] , value?
Outgoing: 5 µM

###

Overview of reported GI50 across a group of molecules:
Test system: HT29
Assay: cells
Details: Homo sapiens, HT-29, 48 h, HT29, 48 h
Express it in nM; write the number only.

Molecule | Units Text | Readout Value
CCCC(C(=O)O)N1C(=O)/C(=C/C=C/c2ccc([N+](=O)[O-])o2)SC1=S (stereo not drawn) [4b] | nM | 1950
O=C(O)C(c1ccccc1)N1C(=O)/C(=C/C=C/c2ccc([N+](=O)[O-])o2)SC1=S (stereo not drawn) [9b] | nM | 5020

Incoming: Checklist item: GI50 tested on HT29, entry O=C(O)CCCCCN1C(=O)/C(=C/C=C/c2ccc([N+](=O)[O-])o2)SC1=S [14b] , value?
Outgoing: 1190

Incoming: Same lookup for CCCCC(C(=O)O)N1C(=O)/C(=C/C=C/c2ccc([N+](=O)[O-])o2)SC1=S (stereo not drawn) [6b] , please.
Outgoing: 1980

Incoming: Same lookup for CC(C)C(C(=O)O)N1C(=O)/C(=C/C=C/c2ccc([N+](=O)[O-])o2)SC1=S (stereo not drawn) [5b] , please.
Outgoing: 1370

Incoming: Same lookup for O=C(O)CCCN1C(=O)/C(=C/C=C/c2ccc([N+](=O)[O-])o2)SC1=S [13b] , please.
Outgoing: 450

###

Test system: Colon cancer
Assay: NCI-60 SRB screen, subpanel
Conditions: Homo sapiens, read-out: MG_MID LC50
API: label(entry) gives yes if the entry's CC50 is strictly smaller than 10 µM; on equality or larger values it gives no.

As a guide, the following entries are already answered.
Compound | Label
CCCC(C(=O)O)N1C(=O)/C(=C/C=C/c2ccc([N+](=O)[O-])o2)SC1=S (stereo not drawn) | yes
O=C(O)C(c1ccccc1)N1C(=O)/C(=C/C=C/c2ccc([N+](=O)[O-])o2)SC1=S (stereo not drawn) | no
O=C(O)CCCCCN1C(=O)/C(=C/C=C/c2ccc([N+](=O)[O-])o2)SC1=S [14b] | no
CC(C)C(C(=O)O)N1C(=O)/C(=C/C=C/c2ccc([N+](=O)[O-])o2)SC1=S (stereo not drawn) | yes
O=C(O)CCCN1C(=O)/C(=C/C=C/c2ccc([N+](=O)[O-])o2)SC1=S [13b] | no

Please look at the following compound next.
Incoming: Please state whether CC50 is below 10 µM for CCCCC(C(=O)O)N1C(=O)/C(=C/C=C/c2ccc([N+](=O)[O-])o2)SC1=S (stereo not drawn)
Outgoing: yes
